Answer each item with its documented pEC50.
# SYSTEM NAME: human CB2 receptors (Homo sapiens (Human), UniProt P34972)
# Sequence (P34972 whole entry): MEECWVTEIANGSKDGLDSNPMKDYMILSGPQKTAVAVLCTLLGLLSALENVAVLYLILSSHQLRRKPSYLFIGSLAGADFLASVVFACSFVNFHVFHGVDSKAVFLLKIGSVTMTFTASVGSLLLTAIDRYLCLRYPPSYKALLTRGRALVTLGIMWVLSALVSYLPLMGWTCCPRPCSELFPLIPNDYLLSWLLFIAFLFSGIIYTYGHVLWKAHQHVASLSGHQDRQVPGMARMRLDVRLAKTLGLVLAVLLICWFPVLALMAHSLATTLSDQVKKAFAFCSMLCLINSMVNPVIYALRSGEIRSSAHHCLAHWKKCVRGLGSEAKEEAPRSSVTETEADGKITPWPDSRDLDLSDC
# PROTOCOL SUMMARY: functional cAMP assay, CHO cells expressing human CB2
# Format: cell-based
# ASSAY SETUP: read-out: Human CB2 EC50
Give bare numbers, as −log10 of the molar value.

MOLECULE	pEC50
C[C@H](Oc1cc(C(=O)NC(C)(CC(N)=O)C2CC2)ncc1C1CC1)C(F)(F)F (some centres unmarked) [Example 259]	9.30
NC(=O)CC1(NC(=O)c2cc(OCC(F)(F)F)c(C3CC3)cn2)CS(=O)(=O)C1 [Example 160]	7.93
Cc1nc(C(C)(CC(C)(C)C)NC(=O)c2cc(OCC(F)(F)F)c(Cl)cn2)no1 (centres unmarked) [Example 83]	7.60
COC(=O)C(C)C(C)(C)NC(=O)c1cc(OCC2CC2)c(Cl)cn1 (centres unmarked) [Example 31]	8.02
CC(C)(C)C(NC(=O)c1cc(OCC(F)(F)F)c(C2CC2)cn1)c1noc(N)n1 (centres unmarked) [Example 192]	8.36
C[C@H](Oc1cc(C(=O)NC2(CC(N)=O)CS(=O)(=O)C2)ncc1C1(F)CCC1)C(F)(F)F [Example 305]	8.29
O=C(N[C@@H](c1cccnc1)C(F)(F)F)c1cc(Cc2ccc(F)cc2)c(Cl)cn1 [Example 41]	8.48
C[C@H](Oc1cc(C(=O)NC(c2noc(N)n2)C(C)(C)C)ncc1C1CC1)C(F)(F)F (some centres unmarked) [Example 219]	9.00
CCC(C)(CO)NC(=O)c1cc(OCC2CC2)c(Cl)cn1 (centres unmarked) [Example 26]	7.32
O=C(NC(CCO)C1CC1)c1cc(OCC2CC2)c(Cl)cn1 (centres unmarked) [Example 19]	7.21

Provide reported pEC50 for each item, in the same order as listed.
1. Cc1nc(C(C)(NC(=O)c2cc(OCC(F)(F)F)c(Cl)cn2)C2CC2)no1 (centres unmarked) [Example 62]
2. CNC(=O)[C@@H](NC(=O)c1cc(O[C@@H](C)C(F)(F)F)c(C2(F)COC2)cn1)C(C)(C)C [Example 172]
3. CC(C)(C)[C@H](CO)NC(=O)c1cc(OCC2CC2)c(Cl)cn1 [Example 29]
4. C[C@H](Oc1cc(C(=O)NC(C(N)=O)C(C)(C)C)ncc1C1CC1)C(F)(F)F (some centres unmarked) [Example 239]

// result
1: 8.05; 2: 7.48; 3: 7.19; 4: 8.82

Report pEC50 for each item below.
1. C[C@H](Oc1cc(C(=O)NC2(CC(N)=O)CS(=O)(=O)C2)ncc1C1CC1)C(F)(F)F [Example 266]
2. CC(C)(C)C(NC(=O)c1cc(OCC(F)(F)F)c(C2CC2)cn1)c1nn[nH]n1 (centres unmarked) [Example 162]
3. Cc1nc(C(C)(CS(C)(=O)=O)NC(=O)c2cc(O[C@@H](C)C(F)(F)F)c(C3CCC3)cn2)no1 (some centres unmarked) [Example 118]

// result
8.80
7.14
8.77
